- ASSAY SYSTEM: T1, extracellular domain of the human leptin receptor (human, UniProt P48357 22-839)
- T1 construct: extracellular domain; It is treated as one construct; a tag is not mentioned for the ELISA and cross-linking experiments; also called hECD; recombinant leptin receptor extracellular domain
- T1 sequence (looked up): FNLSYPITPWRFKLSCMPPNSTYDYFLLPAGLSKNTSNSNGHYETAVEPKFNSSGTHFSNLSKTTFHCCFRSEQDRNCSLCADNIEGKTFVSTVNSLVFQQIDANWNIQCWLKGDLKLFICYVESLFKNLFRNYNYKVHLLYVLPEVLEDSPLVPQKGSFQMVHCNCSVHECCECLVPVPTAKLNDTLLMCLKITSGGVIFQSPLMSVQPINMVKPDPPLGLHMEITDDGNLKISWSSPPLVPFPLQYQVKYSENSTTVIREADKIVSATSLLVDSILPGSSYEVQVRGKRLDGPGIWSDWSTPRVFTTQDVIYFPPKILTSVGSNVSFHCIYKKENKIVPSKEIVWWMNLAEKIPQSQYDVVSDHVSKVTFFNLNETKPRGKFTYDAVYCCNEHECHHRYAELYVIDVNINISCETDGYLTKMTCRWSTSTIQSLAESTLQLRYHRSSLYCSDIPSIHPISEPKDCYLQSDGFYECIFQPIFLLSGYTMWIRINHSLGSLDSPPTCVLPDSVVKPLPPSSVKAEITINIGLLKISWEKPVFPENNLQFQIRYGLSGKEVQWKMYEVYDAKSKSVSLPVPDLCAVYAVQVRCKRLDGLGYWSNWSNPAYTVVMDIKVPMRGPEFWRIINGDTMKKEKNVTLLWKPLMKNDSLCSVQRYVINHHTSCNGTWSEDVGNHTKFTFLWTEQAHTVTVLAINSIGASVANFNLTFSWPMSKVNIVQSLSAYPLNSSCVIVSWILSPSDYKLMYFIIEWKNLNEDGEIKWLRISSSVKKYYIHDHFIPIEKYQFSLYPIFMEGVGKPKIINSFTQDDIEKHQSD
- EXPERIMENT NOTES: SPR; leptin receptor ECD immobilized, antibody as analyte
pKd: −log10 of the molar value.
Recorded pKd, one value per entry.

BINDER	pKd
S2H6 (antibody, V domains shown, also called SC2H6) VH: QVQLLQSGGGVVQPGRSLRLSCAASGFTFSSYGMHWVRQAPGKGLEWVAVISYDGSNKYYADSVKGRFTISRDNSKNTLYLQMNSLRAEDTAVYYCASFQENYFTYWGQGTLVTVSS VL: EIVLTQSPGTLSLSPGERATLSCRASQSVSSNYLAWYQQKPGQAPRLLIYGASSRPTGIPDRFSGSGSGTDFTLTISRLEPEDFAVYYCQQYAASPLTFGGGTKLEIK	9.41
S2H3 (antibody, V domains shown, also called SC2H3) VH: QVQLLQSGGGVVQPGRSLRLSCAASGFTFSSYGMHWVRQAPGKGLEWVAVISYDGSNKYYADSVKGRFTISRDNSKNTLYLQMNSLRAEDTAVYYCAGVRENYFTYWGQGTLVTVSS VL: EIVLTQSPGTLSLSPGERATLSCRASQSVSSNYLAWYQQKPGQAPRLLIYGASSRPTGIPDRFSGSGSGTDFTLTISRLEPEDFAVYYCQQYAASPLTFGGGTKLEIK	9.37
S2H2 (antibody, V domains shown, also called SC2H2; 52H2) VH: QVQLLQSGGGVVQPGRSLRLSCAASGFTFSSYGMHWVRQAPGKGLEWVAVISYDGSNKYYADSVKGRFTISRDNSKNTLYLQMNSLRAEDTAVYYCATFRENYFEYWGQGTLVTVSS VL: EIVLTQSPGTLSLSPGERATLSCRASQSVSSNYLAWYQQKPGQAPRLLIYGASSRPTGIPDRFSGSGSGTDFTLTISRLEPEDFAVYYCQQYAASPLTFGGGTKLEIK	9.45
S2H1 (antibody, V domains shown, also called SC2H1) VH: QVQLLQSGGGVVQPGRSLRLSCAASGFTFSSYGMHWVRQAPGKGLEWVAVISYDGSNKYYADSVKGRFTISRDNSKNTLYLQMNSLRAEDTAVYYCASLYENYFSLWGQGTLVTVSS VL: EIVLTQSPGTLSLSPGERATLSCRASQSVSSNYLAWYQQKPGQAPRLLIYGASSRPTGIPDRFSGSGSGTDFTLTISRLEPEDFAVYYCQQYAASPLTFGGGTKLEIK	9.24
S2H5 (antibody, V domains shown, also called SC2H5) VH: QVQLLQSGGGVVQPGRSLRLSCAASGFTFSSYGMHWVRQAPGKGLEWVAVISYDGSNKYYADSVKGRFTISRDNSKNTLYLQMNSLRAEDTAVYYCASRYENYFSLWGQGTLVTVSS VL: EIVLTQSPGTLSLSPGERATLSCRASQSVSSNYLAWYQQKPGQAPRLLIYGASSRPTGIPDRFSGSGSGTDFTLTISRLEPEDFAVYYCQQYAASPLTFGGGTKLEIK	9.20
S2H7 (antibody, V domains shown, also called SC2H7) VH: QVQLLQSGGGVVQPGRSLRLSCAASGFTFSSYGMHWVRQAPGKGLEWVAVISYDGSNKYYADSVKGRFTISRDNSKNTLYLQMNSLRAEDTAVYYCATRYENYFSTWGQGTLVTVSS VL: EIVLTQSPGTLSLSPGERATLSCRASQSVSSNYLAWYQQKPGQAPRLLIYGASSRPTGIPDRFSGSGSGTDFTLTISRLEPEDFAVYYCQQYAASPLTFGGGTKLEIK	9.19

Recorded values, source patent US20220275097A1.
